tested on: human mononuclear cells (PBMC) stimulated with staphylococcal enterotoxin B (SEB); experiment: cells; type: cell-based; conditions: read-out: EC50 Cytokine Release MIP-1α
ASSAY METRIC: EC50

May I ask what EC50 has been recorded for O=C(NC(Cc1cc(=O)[nH]c2ccccc12)C(=O)O)c1ccc(Cl)cc1 (stereo not shown) [Rebamipide] ? > 1 mM

----------
system: human mononuclear cells (PBMC) stimulated with staphylococcal enterotoxin B (SEB); assay: cells; type: cell-based; settings: read-out: EC50 Cytokine Release IP-10
pEC50: −log10 of the molar value.
ASSAY METRIC: pEC50

May I ask what pEC50 has been recorded for O=C(NC(Cc1cc(=O)[nH]c2ccccc12)C(=O)O)c1ccc(Cl)cc1 (stereo not shown) [Rebamipide] ? < 3.00

----------
tested on: human mononuclear cells (PBMC) stimulated with staphylococcal enterotoxin B (SEB); assay: cells; type: cell-based; conditions: read-out: EC50 Cytokine Release TNF-α
ASSAY METRIC: EC50

May I ask what EC50 has been recorded for O=C(NC(Cc1cc(=O)[nH]c2ccccc12)C(=O)O)c1ccc(Cl)cc1 (stereo not shown) [Rebamipide] ? > 1000 µM

----------
tested on: human mononuclear cells (PBMC) stimulated with staphylococcal enterotoxin B (SEB); experiment: cells; assay type: cell-based; details: read-out: EC50 Cytokine Release IL-4
ASSAY METRIC: EC50

Please provide the recorded EC50 for O=C(NC(Cc1cc(=O)[nH]c2ccccc12)C(=O)O)c1ccc(Cl)cc1 (stereo not shown) [Rebamipide] , tested on human mononuclear cells (PBMC) stimulated with staphylococcal enterotoxin B (SEB). > 1 mM

----------
system: human mononuclear cells (PBMC) stimulated with staphylococcal enterotoxin B (SEB); experiment: cells; type: cell-based; details: read-out: EC50 Cytokine Release IL-10
pEC50: −log10 of the molar value.
ASSAY METRIC: pEC50

May I ask what pEC50 has been recorded for O=C(NC(Cc1cc(=O)[nH]c2ccccc12)C(=O)O)c1ccc(Cl)cc1 (stereo not shown) [Rebamipide] ? < 3.00

----------
system: human mononuclear cells (PBMC) stimulated with staphylococcal enterotoxin B (SEB); experiment: cells; format: cell-based; details: read-out: EC50 Cytokine Release IL-2
pEC50: −log10 of the molar value.
ASSAY METRIC: pEC50

May I ask what pEC50 has been recorded for O=C(NC(Cc1cc(=O)[nH]c2ccccc12)C(=O)O)c1ccc(Cl)cc1 (stereo not shown) [Rebamipide] ? < 3.00

----------
system: human mononuclear cells (PBMC) stimulated with staphylococcal enterotoxin B (SEB); assay: cells; format: cell-based; conditions: read-out: EC50 Cytokine Release GM-CSF
pEC50: −log10 of the molar value.
ASSAY METRIC: pEC50

May I ask what pEC50 has been recorded for O=C(NC(Cc1cc(=O)[nH]c2ccccc12)C(=O)O)c1ccc(Cl)cc1 (stereo not shown) [Rebamipide] ? < 3.00
